Tested on: Plasmodium berghei
Test: Screen against P. berghei liver stage (PbLuc), transformed with Luciferase, at 10uM
Assay type: functional, HepG2
Details: tested at 10 uM
The campaign covered roughly 69,000 compounds. About 8,600 (12%) showed an effect of 50% or more. This is one part of a sample in which strong results are shown more often than they occur.
Binned INHIBITION; ranges: group A: < -20%; group B: ≥ -20% and < 50%; group C: ≥ 50%

O=C(COCC1CC1)N1CCSCC1 :: group C

Now turn to the next molecule.
GET /class?item= Clc1ccc(C2(CNC3=NCCN3)CCCCC2)cc1 group C

###

Listing of entries alongside the reported INHIBITION.
Tested on: Plasmodium berghei
Assay: Screen against P. berghei liver stage (PbLuc), transformed with Luciferase, at 10uM
Assay type: functional, HepG2
Details: tested at 10 uM
The campaign covered roughly 69,000 compounds. About 8,600 (12%) showed an effect of 50% or more. This is one part of a sample in which strong results are shown more often than they occur.
A number alone suffices; assume %.

O=c1[nH]nc(CNCc2ccc(OC34CCCN(CC3)C4)cc2)[nH]1 (stereo not given) :: 21.085

I would be grateful if you could share the reported INHIBITION for Cc1noc(-c2cnc(NC3CC3)nc2-c2ccco2)c1C . 7.9

Then COc1ncccc1CNC(=O)c1c(C)oc(C)c1C ? 5.1

// repeat for CCCOC(=O)N1CCC(c2nnc(Cn3cccn3)n2C2CC2)CC1 and report -35.9

###

Test system: Plasmodium berghei
Assay: Screen against P. berghei liver stage (PbLuc), transformed with Luciferase, at 10uM
Format: functional, HepG2
Conditions: tested at 10 uM
About 8,600 (12%) of roughly 69,000 compounds showed an effect of 50% or more. Shown is part of a subset that was picked to be rich in strong results.
So basically: INHIBITION at 40% or higher? That is 1. Lower than 40%? That is -1.

Known results for molecules:
CN1[C@H](CN2CCCC2)C[C@@H]2CN(Cc3ccoc3)CC[C@@H]21 :: -1
Cn1nc(C(=O)N2CCOCC2)cc1C(=O)Nc1c(Cl)cccc1Cl :: 1
CN1CCCC1c1ccc(C(=O)Nc2c3c(nn2C)CCC3)s1 (stereo unspecified) :: 1
Cc1cccc(NC(=O)Cc2cnc3n(C)c(=O)[nH]c(=O)n23)c1 :: -1

Item Cn1nc2c(c1NC(=O)c1ccc(Cl)s1)CCC2 with INHIBITION of 40% or above? -1

Check CS(=O)(=O)N1CCC(NC(=O)COc2ccc(Cl)c(Cl)c2)CC1 too. -1

Also CCc1nccn1C1CCCN(C(=O)c2cnn3ccc(C)nc23)C1 (stereo unspecified) , if possible. -1

Another molecule to check: COCCN1CCO[C@H]2CCN(C(=O)c3cccs3)CC[C@@H]21 -1

Cc1ccc(CN2Cc3c(C(=O)N4CCN(C)CC4)nn(C)c3C2)s1 , same question. -1

And CCc1nccn1C1CCCN(C(=O)c2cnn(C)c2C2CC2)C1 (stereo unspecified) ? 1

###

System: Plasmodium berghei
Assay: Screen against P. berghei liver stage (PbLuc), transformed with Luciferase, at 10uM
Assay type: functional, HepG2
Conditions: tested at 10 uM
Screen size: about 69,000 compounds; about 8,600 (12%) showed an effect of 50% or more. Shown is part of a subset that was picked to be rich in strong results.
Think of 20% as a floor: if INHIBITION stands on it or above, it is true; beneath it, false.

Example entries begin here.
CCN1Cc2ccccc2CC2(CCN(C)CC2)C1=O :: true
Cc1nn(C)c2cnn(Cc3ccc(C(=O)N4CCCCC4)o3)c12 :: true

Say whether Cn1ccnc1CN1CCC(CCCc2ccccn2)(C(N)=O)CC1 shows INHIBITION of 20% or more. false

Try CC(C)C[C@H](NC(=O)NC1CCS(=O)(=O)C1)C(=O)NCc1cccnc1 (some centres not stated) next. true

Input Cc1nn(C)c2cnn(Cc3ccc(C(=O)NC4CC4)o3)c12 false

Now the molecule Cc1c(C)n(CC(O)CN2CCN(CCO)CC2)c2c(Cl)cccc12 (configuration not stated) true

Moving on to the next molecule: Cc1cc(C(=O)N(C)S(C)(=O)=O)ccc1F true

###

System: Plasmodium berghei
Assay: Screen against P. berghei liver stage (PbLuc), transformed with Luciferase, at 10uM
Type: functional, HepG2
Conditions: tested at 10 uM
Out of some 69,000 compounds screened, about 8,600 (12%) showed an effect of 50% or more. Many of the other results were omitted from the sample, so strong results are more common in it than they were.
MEASUREMENT LABEL: INHIBITION (%)
Numeric only. Scale: %

Test system Plasmodium berghei; read-out INHIBITION; what value for CN(Cc1ccc2c(c1)OCO2)C(=O)c1ccc(C2CCCNC2)cc1 (stereo unspecified) ? -26.5

Same question for CSc1cccc(CN(C)C(=O)c2cccc(C3CCCNC3)c2)c1 (stereo unspecified) please. 60.4

What do you have for Cc1ccc(C(=O)N2C[C@@H](N3CCN(C)CC3)[C@H]3OCCC[C@H]32)cn1 ? 10.4

Likewise for O=C(NC1CCOCC1)c1cccc(C2CCCNC2)c1 (stereo unspecified) ? 27.7

Record: CSCCN1CCC(NC(=O)c2cccc(C3CCCNC3)c2)CC1 (stereo unspecified) 50.8

Next record, please: Cc1ccc(C(=O)N2C[C@H](N3CCOCC3)[C@@H]3OCCC[C@@H]32)cn1 50.3

Now consider CCc1noc(C)c1C(=O)N1CCCC1c1c(C)nn(C)c1C (stereo unspecified) and answer again. 31.8

Moving on to the next molecule: Cc1nc(C)n(C2CCCN(C(=O)CCCc3ccccn3)C2)n1 (stereo unspecified) -11.9

Try this molecule next: Cc1ccc(C2CSCCN2C(=O)c2cccnc2)cc1 (stereo unspecified) -39.8

Same again, this time with COC(=O)CN1CC2(CCNCC2)COc2ccccc2S1(=O)=O 27.6

Note, next up: COc1cccc(CN2CCC3(CC2)CCN(C(=O)[C@@H]2CCCO2)C3)c1 -47.9

###

Tested on: Plasmodium berghei
Test: Screen against P. berghei liver stage (PbLuc), transformed with Luciferase, at 10uM
Type: functional, HepG2
Conditions: tested at 10 uM
In all, about 69,000 compounds went through this assay and about 8,600 (12%) showed an effect of 50% or more. This excerpt belongs to a sample that is enriched for strong results.
MEASUREMENT LABEL: INHIBITION (%)
Your answer is read as %, so omit the unit and give the number.

CCn1cc(S(=O)(=O)N2CCC(C)CC2)c(C)n1 :: 4.35

Report INHIBITION for O=C(c1ccnnc1)N1C[C@H]2CCC[C@@]2(COCc2ccccn2)C1 please. 31.1

Further, for COc1cccc(S(=O)(=O)CCN2CCCN(C(C)=O)CC2)c1 ? 45.8

###

Test system: Plasmodium berghei
Assay: Screen against P. berghei liver stage (PbLuc), transformed with Luciferase, at 10uM
Type: functional, HepG2
Conditions: tested at 10 uM
Among all 69,000 compounds or so, about 8,600 (12%) showed an effect of 50% or more. Many of the other results were omitted from the sample, so strong results are more common in it than they were.
Tick True if INHIBITION is 20% or greater. Tick False if INHIBITION is less than 20%.

Observe how each entry below is paired with its result.
Cc1cnn(CC(C)NCc2nc(-c3cccnc3)no2)c1 (stereo not drawn) :: False
CCC(O)CN1CCN(C(=O)c2sccc2C(C)C)CC1 (stereo not drawn) :: True
Cc1ccc(CCCC(=O)N2CCC(CS(N)(=O)=O)CC2)s1 :: False
Cc1ccsc1C(=O)NC1CCN(c2cnn(C)c2)C1=O (stereo not drawn) :: True
CSCC(C)NS(=O)(=O)c1ccc(C)c(N(C)C)c1 (stereo not drawn) :: False
CCC(=O)Nc1ccc2c(c1)C1(CCOCC1)CN2CCF :: False
CCCc1noc(CN2CCOCC2C)n1 (stereo not drawn) :: True
Cc1ccc(-c2n[nH]cc2CNCC2CCN(CC(F)(F)F)C2)o1 (stereo not drawn) :: True

Now for a further compound.
Reported INHIBITION reaches at least 20% for NC(=O)C(c1ccc(F)cc1)N1CCN(CCO)CC1 (stereo not drawn) ? True

###

INHIBITION overview
System: Plasmodium berghei
Assay: Screen against P. berghei liver stage (PbLuc), transformed with Luciferase, at 10uM
Type: functional, HepG2
Details: tested at 10 uM
Among all 69,000 compounds or so, about 8,600 (12%) showed an effect of 50% or more. The entries come from a sample that favours strong results as a whole.
Just the number please, in %, no unit attached.

Fill in: INHIBITION of O=C(Nc1ccncc1)N(CCO)Cc1ccsc1 is ___ -42.2

Same for Cc1ccc(N2CCCC(NCc3ccc4c(c3)OCCO4)C2)nn1 (centres undefined) -19.4

Attribution: ChEMBL document CHEMBL4513216
